- Target entity: Fatty-acid amide hydrolase 1 (Rattus norvegicus) (UniProt P97612)
- Sequence (P97612 whole entry): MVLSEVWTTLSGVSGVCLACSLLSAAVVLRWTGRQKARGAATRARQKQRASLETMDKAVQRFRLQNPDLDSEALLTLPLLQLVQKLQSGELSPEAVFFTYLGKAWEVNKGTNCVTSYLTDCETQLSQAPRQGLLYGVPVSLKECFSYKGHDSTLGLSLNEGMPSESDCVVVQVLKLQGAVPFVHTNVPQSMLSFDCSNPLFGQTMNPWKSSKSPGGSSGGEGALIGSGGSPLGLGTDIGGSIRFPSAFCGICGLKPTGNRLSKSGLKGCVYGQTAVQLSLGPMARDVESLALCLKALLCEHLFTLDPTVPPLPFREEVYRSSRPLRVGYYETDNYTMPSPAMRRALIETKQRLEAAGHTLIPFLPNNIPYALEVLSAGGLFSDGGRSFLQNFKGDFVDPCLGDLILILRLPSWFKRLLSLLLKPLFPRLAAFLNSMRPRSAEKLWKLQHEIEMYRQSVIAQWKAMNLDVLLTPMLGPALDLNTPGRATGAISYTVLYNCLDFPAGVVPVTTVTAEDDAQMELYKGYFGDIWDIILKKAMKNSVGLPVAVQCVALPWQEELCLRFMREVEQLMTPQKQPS
- Protocol summary: Inhibition of FAAH in rat cerebellum membranes assessed as [3H]anandamide hydrolysis
- Assay type: cell membranes
- Reported conditions: Membrane
Kind request: treat 5 as inclusive, so pI50 (-log10 of IC50 in M) at 5 or higher is Y, anything lower is N.

# Molecule, Discrete label
measured = [
    ("O=C(OCC1CO1)c1ccccc1-c1ccccc1 (racemic)", "N"),
    ("CC/C=C\\C/C=C\\C/C=C\\CCCCCCCC(=O)OCC1CCCCO1 (racemic)", "N"),
    ("CCCCC/C=C\\C/C=C\\C/C=C\\C/C=C\\CCCC(=O)OC[C@@H]1COC(C)(C)O1", "N"),
    ("CCCCC/C=C\\C/C=C\\C/C=C\\C/C=C\\CCCC(=O)OCC1COC(C)(C)O1 (racemic)", "N"),
    ("CC/C=C\\C/C=C\\C/C=C\\CCCCCCCC(=O)OCC1CO1 (racemic)", "Y"),
    ("O=C(OCC1CO1)c1ccc(-c2ccccc2)cc1 (racemic)", "N"),
    ("CCCCC/C=C\\C/C=C\\C/C=C\\C/C=C\\CCCC(=O)OC1CCOCC1", "Y"),
    ("CCCCC/C=C\\C/C=C\\C/C=C\\C/C=C\\CCCC(=O)NC[C@H]1CCCO1", "N"),
    ("CCCCC/C=C\\C/C=C\\C/C=C\\C/C=C\\CCCC(=O)OCC1CCCO1 (stereo not given)", "N"),
]

====

- Target entity: Monoglyceride lipase (Rattus norvegicus) (UniProt Q8R431)
- Protocol summary: Inhibition of MGL in rat cerebellum membrane fractions assessed as [3H]2-oleoylglycerol hydrolysis
- Assay type: cell membranes
Measured parameter: Log I50

# Molecule, Measured parameter, Experimental result
rows = [
    ("CCCCC/C=C\\C/C=C\\C/C=C\\C/C=C\\CCCC(=O)OCc1ccc2c(c1)OCO2", "Log I50", "< 4"),
    ("O=C(OCC1CO1)c1cccc(-c2ccccc2)c1 (racemic)", "Log I50", "< 4"),
    ("CCCCC/C=C\\C/C=C\\C/C=C\\C/C=C\\CCCC(=O)OC[C@H]1COC(C)(C)O1", "Log I50", "< 4"),
    ("CCCCC/C=C\\C/C=C\\C/C=C\\C/C=C\\CCCC(=O)OC[C@@H]1CO1", "Log I50", "< 4"),
    ("CCCCC/C=C\\C/C=C\\C/C=C\\C/C=C\\CCCC(=O)OC1CCOCC1", "Log I50", "< 4"),
    ("CCCCCCCC/C=C\\CCCCCCCC(=O)OCC1CO1 (racemic)", "Log I50", "< 4"),
    ("CCCCC/C=C\\C/C=C\\C/C=C\\C/C=C\\CCCC(=O)OCC1COC(C)(C)O1 (racemic)", "Log I50", 4),
    ("CCCCC/C=C\\C/C=C\\C/C=C\\C/C=C\\CCCC(=O)OC[C@H]1CO1", "Log I50", "< 4"),
    ("O=C(OCC1CO1)c1ccccc1-c1ccccc1 (racemic)", "Log I50", "< 4"),
    ("O=C(OCC1CCCCO1)c1cccc(-c2ccccc2)c1 (racemic)", "Log I50", "< 4"),
    ("CCCCC/C=C\\C/C=C\\C/C=C\\C/C=C\\CCCC(=O)OCC1CO1 (racemic)", "Log I50", 4.72),
    ("CCCCC/C=C\\C/C=C\\C/C=C\\C/C=C\\CCCC(=O)OCCC1OCC(C)(C)CO1", "Log I50", 4),
    ("O=C(OCC1CO1)c1ccc(-c2ccccc2)cc1 (racemic)", "Log I50", "< 4"),
    ("CCCCC/C=C\\C/C=C\\C/C=C\\C/C=C\\CCCC(=O)NC[C@H]1CCCO1", "Log I50", 4.09),
]

====

- Target entity: Monoglyceride lipase (Rattus norvegicus) (UniProt Q8R431)
- Sequence (whole entry): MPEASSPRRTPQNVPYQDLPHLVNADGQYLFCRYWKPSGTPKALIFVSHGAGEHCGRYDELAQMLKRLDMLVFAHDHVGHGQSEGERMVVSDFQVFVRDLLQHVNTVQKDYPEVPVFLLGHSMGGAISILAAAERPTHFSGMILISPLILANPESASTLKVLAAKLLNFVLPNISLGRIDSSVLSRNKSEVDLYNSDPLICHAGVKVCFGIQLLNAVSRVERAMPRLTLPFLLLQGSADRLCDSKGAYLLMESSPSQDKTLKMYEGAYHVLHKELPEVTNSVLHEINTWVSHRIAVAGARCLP
- Protocol summary: Inhibition of MGL in rat cerebellum cytosolic fractions assessed as [3H]2-oleoylglycerol hydrolysis
- Format: tissue-based
# key: entry, value: pI50 (-log I50, M)

# Molecule, Censoring sign, pI50 (-log I50, M)
records = [
    ("O=C(OCC1CO1)c1cccc(-c2ccccc2)c1 (racemic)", "<", 4),
    ("O=C(OCC1CO1)c1ccc(-c2ccccc2)cc1 (racemic)", "<", 4),
    ("CCCCC/C=C\\C/C=C\\C/C=C\\C/C=C\\CCCC(=O)OC[C@@H]1COC(C)(C)O1", "<", 4),
    ("CCCCC/C=C\\C/C=C\\C/C=C\\C/C=C\\CCCC(=O)NCC1COC(C)(C)O1 (racemic)", "=", 4.8),
    ("CCCCCCCC/C=C\\CCCCCCCC(=O)OCC1CCCCO1 (racemic)", "<", 4),
    ("CC/C=C\\C/C=C\\C/C=C\\CCCCCCCC(=O)OCC1CCCCO1 (racemic)", "=", 4.64),
    ("CCCCC/C=C\\C/C=C\\C/C=C\\C/C=C\\CCCC(=O)OCC1CCCCO1 (racemic)", "=", 5.26),
]

====

- Target entity: Monoglyceride lipase (Rattus norvegicus)
- Protocol summary: Inhibition of MGL in rat cerebellum membrane fractions assessed as [3H]2-oleoylglycerol hydrolysis at 100 uM
- Format: cell membranes
Measured parameter: inhibition

# Compound, Experimental result
data = [
    ("O=C(OCC1CO1)c1ccccc1-c1ccccc1 (racemic)", "18%"),
    ("CCCCCCCC/C=C\\CCCCCCCC(=O)OCC1CO1 (racemic)", "8%"),
    ("O=C(OCC1CO1)c1ccc(-c2ccccc2)cc1 (racemic)", "9%"),
    ("O=C(OCC1CCCCO1)c1ccccc1 (racemic)", "24%"),
    ("CCCCC/C=C\\C/C=C\\C/C=C\\C/C=C\\CCCC(=O)NCC1COC(C)(C)O1 (racemic)", "45%"),
    ("CC/C=C\\C/C=C\\C/C=C\\CCCCCCCC(=O)OCC1CCCCO1 (racemic)", "33%"),
]

Data credit: ChEMBL document CHEMBL1148794
